Collected self-splicing fitness (ln) values appear next to each entry.
# test protocol: self-splicing fitness, log relative to wild type (ln ratio); higher = more splicing; Tetrahymena group I intron in knt gene, E. coli kanamycin selection, DiMSum; sequences stand for … in CUCUCU…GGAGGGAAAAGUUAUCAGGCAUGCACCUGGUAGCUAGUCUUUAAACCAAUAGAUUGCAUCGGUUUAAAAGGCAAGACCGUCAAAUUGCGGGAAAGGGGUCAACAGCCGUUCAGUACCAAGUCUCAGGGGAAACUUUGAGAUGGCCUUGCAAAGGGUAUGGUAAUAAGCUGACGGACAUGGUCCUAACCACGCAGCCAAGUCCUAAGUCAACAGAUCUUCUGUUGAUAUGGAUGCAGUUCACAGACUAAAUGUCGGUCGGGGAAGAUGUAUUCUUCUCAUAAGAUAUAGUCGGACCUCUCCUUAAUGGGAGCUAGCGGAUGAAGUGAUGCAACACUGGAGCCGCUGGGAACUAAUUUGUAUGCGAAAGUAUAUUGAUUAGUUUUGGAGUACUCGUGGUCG;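 also: selection with 25 µg/mL kanamycin versus none on LB agar overnight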
# assay conditions: 30 °C

sequence chain: CUGCAGCAAUAUUACGGAUU
recorded metric: self-splicing fitness (ln)
recorded measurement: -3.49
--
sequence chain: UGGCAGCAAUAUUACGAAUU
recorded metric: self-splicing fitness (ln)
recorded measurement: -3.42
--
sequence chain: CUUAAGCAAUAUUACGACAU
recorded metric: self-splicing fitness (ln)
recorded measurement: -3.43
--
sequence chain: CGGUAGCAAUAUUACGGCUA
recorded metric: self-splicing fitness (ln)
recorded measurement: -1.59
--
sequence chain: GGGUAGCAAUAUUACGUCUC
recorded metric: self-splicing fitness (ln)
recorded measurement: -0.431
--
sequence chain: ACACAGCAAUAUUACGUGGG
recorded metric: self-splicing fitness (ln)
recorded measurement: -3.5

stdin: self-splicing fitness (ln) lookup needed for CUGUAGCAAUAUUACGUCCU , thanks.
stdout: -3.57

stdin: Again, but for CCGCAGCAAUAUUACGUGAU
stdout: -2.62

====

# test protocol: self-splicing fitness, log relative to wild type (ln ratio); higher = more splicing; Tetrahymena group I intron in knt gene, E. coli kanamycin selection, DiMSum; sequences stand for … in CUCUCU…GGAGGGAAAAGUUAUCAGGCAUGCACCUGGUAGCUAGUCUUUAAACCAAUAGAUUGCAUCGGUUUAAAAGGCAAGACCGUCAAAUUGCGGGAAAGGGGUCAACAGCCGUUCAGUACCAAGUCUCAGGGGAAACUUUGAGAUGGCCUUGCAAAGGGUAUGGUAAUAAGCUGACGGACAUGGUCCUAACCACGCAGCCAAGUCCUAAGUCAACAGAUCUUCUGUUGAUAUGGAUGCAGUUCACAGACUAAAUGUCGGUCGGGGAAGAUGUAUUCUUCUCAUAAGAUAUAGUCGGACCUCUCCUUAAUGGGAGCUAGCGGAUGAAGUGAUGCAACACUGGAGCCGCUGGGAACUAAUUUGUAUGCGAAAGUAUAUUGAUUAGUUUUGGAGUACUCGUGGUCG
# assay conditions: 37 °C
recorded metric: self-splicing fitness (ln)
In your answer, state the number alone without any accompanying words.

sequence chain: UCAAAGCAAUAUUACGCUUG
recorded measurement: -2.58
//
sequence chain: GCAAAGCAAUAUUACGGAUA
recorded measurement: -1.6
//
sequence chain: GUAUAGCAAUAUUACGAGGG
recorded measurement: -0.987

Then there is this sequence:
stdin: self-splicing fitness (ln) lookup needed for AAAAAGCAAUAUUACGGACG , thanks.
stdout: 0.25

Ref: the supplement of paper PMC7877785
